Where these numbers come from: patent EP1191024A1

Target: cdMMP-13 (Homo sapiens, UniProt P45452)
Experiment: MMP microfluorometric profiling assay (fluorogenic Mca-peptide substrate)
Format: biochemical
Conditions: cdMMP-13, @ 15 (µM)
Experimental: The tested MMP enzymes were prepared more specifically in the laboratories of the applicants, with the exception of MMP-1. MMP-1 from human rheumatoid synovial fibroblasts was purchased from Calbiochem-Novabiochem Corporation, LaJolla. […] The enzymatic activity was measured using a modified version of a resonance energy transfer fluorogenic assay as described^[26]. […] Cleavage results in the loss of energy transfer and a large increase in fluorescence of the MCA group. […]
READOUT TYPE: percent inhibition
Put down the number, then write its unit next to it.

Completed entries (count: 3):
MOLECULE	percent inhibition
O=C(CC1NC(=O)NC1=O)NC1=NN=C(c2ccc(Cl)cc2)CS1 (stereo not shown) [Example 23]	34%^a)@ 15
O=C(CC1NC(=O)NC1=O)NC1=NN=C(c2ccc(N3CCCC3)cc2)CS1 (stereo not shown) [Example 26]	36%^a)@ 15
O=C(CC1NC(=O)NC1=O)NC1=NN=C(c2ccc(C3CCCCC3)cc2)CS1 (stereo not shown) [Example 25]	67%^a)@ 15

Consider the additional molecule presented here.
Exercise: Please look at this molecule and report its percent inhibition: O=C(CC1NC(=O)NC1=O)NC1=NN=C(c2ccc(Br)cc2)CS1 (stereo not shown) [Example 24]
Solution: 39%^a)@ 15

====

Below are pIC50 values measured for cdMMP-14 (Homo sapiens, UniProt P50281).
Kindly note that pIC50 refers to -log10 of the concentration in mol/L and answer with the value alone.

MOLECULE	MEASURED VALUE
O=C(CC1NC(=O)NC1=O)NC1=NN=C(c2ccc(Br)cc2)CS1 (stereo not shown)	5.97
CC(C)[C@@H](NS(=O)(=O)c1ccccc1)C(=O)NC1=NN=C(c2ccc(Cl)cc2)CS1	5.95
C[C@H](NS(=O)(=O)c1ccccc1)C(=O)NC1=NN=C(c2ccc(C(F)(F)F)cc2)CS1	5.96

Now look at this one.
Exercise: Hello, please tell me recorded pIC50 for this one: COc1ccc(S(=O)(=O)NCC(=O)NC2=NN=C(c3ccc(Cl)cc3Cl)CS2)cc1
Solution: 6.15

====

Form: system (UniProt:P39900), quantity (pIC50), values below.
Sequence (P39900 106-263 limits assumed): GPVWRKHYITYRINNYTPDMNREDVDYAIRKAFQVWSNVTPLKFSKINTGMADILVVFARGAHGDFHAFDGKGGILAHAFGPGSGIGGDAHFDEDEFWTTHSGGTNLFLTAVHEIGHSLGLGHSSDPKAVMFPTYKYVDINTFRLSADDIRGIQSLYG
Keep it numeric: pIC50 is minus log10 of the concentration in mol/L.

Answered examples (3):
SUBSTANCE SMILES	TESTED SYSTEM	READOUT TYPE	MEASURED VALUE
C[C@@H](NS(=O)(=O)c1ccccc1)C(=O)NC1=NN=C(c2ccc(F)cc2)CS1	UniProt:P39900	pIC50	6.37
C[C@@H](NS(=O)(=O)c1ccccc1)C(=O)NC1=NN=C(c2ccc(C#N)cc2)CS1	UniProt:P39900	pIC50	6.35
C[C@H](NS(=O)(=O)N1CCOCC1)C(=O)NC1=NN=C(c2ccc(Cl)cc2)CS1	UniProt:P39900	pIC50	6.48

Now examine the next entry.
Exercise: Answer with the recorded pIC50 of COc1ccc(S(=O)(=O)NCC(=O)NC2=NN=C(c3ccc(Cl)cc3Cl)CS2)cc1 only.
Solution: 6.59
